Recorded IC50 by entry
# target under test: UniProt:Q00534
# Sequence (Q00534 whole entry): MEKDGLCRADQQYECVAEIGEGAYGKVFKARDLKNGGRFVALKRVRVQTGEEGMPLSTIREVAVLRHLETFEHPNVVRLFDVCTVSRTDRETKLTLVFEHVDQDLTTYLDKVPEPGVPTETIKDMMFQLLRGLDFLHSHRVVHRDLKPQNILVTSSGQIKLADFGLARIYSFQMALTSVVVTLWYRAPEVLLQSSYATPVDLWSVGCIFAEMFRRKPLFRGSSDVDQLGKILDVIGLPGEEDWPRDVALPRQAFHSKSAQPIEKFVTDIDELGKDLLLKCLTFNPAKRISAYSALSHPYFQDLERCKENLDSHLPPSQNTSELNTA
# Sequence (P30281 whole entry partner): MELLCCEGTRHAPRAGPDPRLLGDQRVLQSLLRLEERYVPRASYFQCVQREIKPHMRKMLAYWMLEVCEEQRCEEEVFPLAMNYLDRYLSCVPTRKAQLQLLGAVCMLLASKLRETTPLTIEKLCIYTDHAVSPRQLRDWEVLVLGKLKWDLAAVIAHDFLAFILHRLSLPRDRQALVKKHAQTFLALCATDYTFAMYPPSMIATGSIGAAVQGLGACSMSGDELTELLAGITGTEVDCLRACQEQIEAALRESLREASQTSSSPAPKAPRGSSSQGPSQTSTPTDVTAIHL
# method: CDK protein kinase inhibition by ADP-Glo assay, CDK6-CYCLIN D3
# Type: biochemical
# particulars: ADP-Glo, 1000 μM ATP; Table 25; read-out: CDK6-CYCLIND3, IC50
# Procedure: CDK Protein Kinase Inhibition by ADP-Glo Assay This ADP-Glo assay measures ADP formed from a kinase reaction and indirectly quantifies the phosphorylation of peptide substrates by the CDK/cyclin protein complexes. […] At the end of the incubation, the reaction is quenched, and conversion is detected by luminescence using the Promega ADP-Glo™ Kinase Assay kit (catalog #V9102). […]

Worked examples, 2 compounds total:
Tell me IC50 reported for C[C@H]1CCCNC(=O)O[C@@H]2CC[C@@H](C2)c2cc([nH]n2)Nc2cnnc(c2)O1
100 to 500 nM

Determine its reported IC50: O=C1NC2CC(/C=C/c3cc(ccn3)Nc3cc(n[nH]3)[C@H]3CC[C@H](C3)O1)C2
10 to 50 nM

Pending compound:
Read off the recorded IC50 for C[C@H]1CCCC(F)(F)c2cc(ccn2)Nc2cc(n[nH]2)[C@H]2CC[C@H](C2)OC(=O)N1
10 to 50 nM
